target: T1, soluble TREM2 (sTREM2) (Homo sapiens, UniProt Q9NZC2); test: Soluble TREM2 (TREM2 shedding) assay in HEK293 TREM2/DAP12 cells; type: cell-based; design: key: NC = no change; −− = reduced sTREM2; ++ = increased sTREM2; details: change in sTREM2 levels
T1 construct: expressed in transfected cells
T1 sequence (Q9NZC2 19-230): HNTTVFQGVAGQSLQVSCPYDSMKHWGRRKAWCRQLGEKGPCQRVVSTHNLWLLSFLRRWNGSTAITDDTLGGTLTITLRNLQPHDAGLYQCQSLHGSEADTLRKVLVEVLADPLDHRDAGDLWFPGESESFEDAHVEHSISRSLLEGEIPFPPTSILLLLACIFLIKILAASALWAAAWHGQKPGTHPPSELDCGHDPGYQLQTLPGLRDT
T1 sequence (O43914 22-113 partner): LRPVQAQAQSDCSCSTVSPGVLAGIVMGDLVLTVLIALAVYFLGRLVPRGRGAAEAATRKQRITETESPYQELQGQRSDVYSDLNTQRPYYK

- molecule: "24B4.A1: anti-TREM2 antibody clone; VH SEQ ID NO:17, VL SEQ ID NO:28 (antibody, V domains shown) VH: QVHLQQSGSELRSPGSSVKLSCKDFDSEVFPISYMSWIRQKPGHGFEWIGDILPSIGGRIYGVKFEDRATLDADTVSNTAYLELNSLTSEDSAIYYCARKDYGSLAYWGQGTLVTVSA VL: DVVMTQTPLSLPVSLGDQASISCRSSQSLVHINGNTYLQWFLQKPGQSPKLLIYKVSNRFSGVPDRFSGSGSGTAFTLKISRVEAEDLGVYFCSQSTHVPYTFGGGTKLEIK"
  STREM2: "NC"
- molecule: "54C2.A1: anti-TREM2 antibody clone; VH SEQ ID NO:22, VL SEQ ID NO:33 (antibody, V domains shown) VH: QVHLQQSGSELRSPGSSVKLSCKDFDSEVFPIAYMSWVRQKPGHGFEWIGDILPSIGRRIYGVKFEDKATLDADTVSNTAYLELNSLTSEDSAIYYCTRKDYGSLAYWGQGTLVTVSA VL: DVVMTQTPLSLPVSLGDQASISCRSSQSLVHINGNTYLQWYLQKPGQSPKLLIYKVSNRFSGVPDRFSGSGSGTDFTLRISRVEAEDLGVYFCSQSTHLPYTFGGGTKLEIK"
  STREM2: "NC"
- molecule: "RS9.F10: anti-TREM2 antibody clone; likely VH SEQ ID NO:6, VL SEQ ID NO:7 (antibody, V domains shown) VH: QVQLQQPGAELVKPGASVKLSCKASGYTFTSYWMHWVKQSPGRGLEWIGRSDPTTGGTNYNEKFKTKATLTVDKPSSTAYMQLSSLTSDDSAVYYCVRTSGTGDYWGQGTSLTVSSAKTTAPSVYPLAPVCGGTTGSSVT VL: DVVMTQTPLSLPVSLGDQASISCRSSQSLVHNNGNTFLHWYLQKPGQSPKLLIYKVSNRFSGVPDRFSGSGSGTDFTLKISRVEAEDLGVYFCSQTTHVPPTFGGGTKLEIKRADAAPTVSIFPPSSEQLTSGGASVVCF"
  STREM2: "NC"
- molecule: "42E8.H1: anti-TREM2 antibody clone; VH SEQ ID NO:20, VL SEQ ID NO:31 (antibody, V domains shown) VH: DVQLQESGPGLVKPSQSLSLTCTVTGYSITSDYAWNWIRQFPGNKLEWMGYINYSGRTIYNPSLKSRISITRDTSKNHFFLQLISVTTEDTATYYCARWNGNYGFAYWGQGTLVTVSA VL: DVVMTQNPLSLPVSLGDQASISCRSSQSLVHINGNTYLHWYLQKPGQSPKLLIYKVSNRFSGVPDRFSGSGSGTDFTLKISRVEAEDLGVYFCSQTTHALFTFGSGTKLEIK"
  STREM2: "−−"
